Catalogue of viability, T/C values
Tested on: 556581-035-R-J1-PDC spheroids with HUVEC/MSC, viability
Test: Anticancer human tumor 556581-035-R-J1-PDC patient-derived ovarian carcinoma cell line growth inhibition [IpAb]
Details: second compound 1 µM; first compound 3.16 µM; active compounds read low
Experimental: Combinatorial screen of targeted agents with ipatasertib and abemaciclib in multi-cell type tumor spheroids […] Compounds. […] If the clinical Cmax for an agent had not been determined, the highest concentration tested was 10 microM. NCI60 Cell Culture. […] The optimal seeding densities for each of the cell lines at each time point assessed were determined prior to performing the concentration response studies. […]
Field: numeric (%). Do not append units.

Example cases with answers are listed next.
C=CCn1c(=O)c2cnc(Nc3ccc(N4CCN(C)CC4)cc3)nc2n1-c1cccc(C(C)(C)O)n1 + CC(C)NCC(C(=O)N1CCN(c2ncnc3c2C(C)CC3O)CC1)c1ccc(Cl)cc1; 27.4
Cc1nc(NC(=O)N2CCCC2C(N)=O)sc1-c1ccnc(C(C)(C)C(F)(F)F)c1 (stereo not given) + CCN1CCN(Cc2ccc(Nc3ncc(F)c(-c4cc(F)c5nc(C)n(C(C)C)c5c4)n3)nc2)CC1; 20.2
Cc1nc(NC(=O)N2CCCC2C(N)=O)sc1-c1ccnc(C(C)(C)C(F)(F)F)c1 (stereo not given) + CC(C)NCC(C(=O)N1CCN(c2ncnc3c2C(C)CC3O)CC1)c1ccc(Cl)cc1; 27.4
CC1(C)CCC(CN2CCN(c3ccc(C(=O)NS(=O)(=O)c4ccc(NCC5CCOCC5)c([N+](=O)[O-])c4)c(Oc4cnc5[nH]ccc5c4)c3)CC2)=C(c2ccc(Cl)cc2)C1 + CC(C)NCC(C(=O)N1CCN(c2ncnc3c2C(C)CC3O)CC1)c1ccc(Cl)cc1; 58.1

Continue with the next compound.
What value of viability, T/C has been reported for the following compound? CC1(C)CCC(CN2CCN(c3ccc(C(=O)NS(=O)(=O)c4ccc(NCC5CCOCC5)c([N+](=O)[O-])c4)c(Oc4cnc5[nH]ccc5c4)c3)CC2)=C(c2ccc(Cl)cc2)C1 + CCN1CCN(Cc2ccc(Nc3ncc(F)c(-c4cc(F)c5nc(C)n(C(C)C)c5c4)n3)nc2)CC1 45.1

###

Measured viability, T/C of individual entries
tested on: 556581-035-R-J1-PDC spheroids with HUVEC/MSC, viability; experiment: Anticancer human tumor 556581-035-R-J1-PDC cell line growth inhibition [IpAb]; conditions: second compound 3.16 µM; first compound 0.316 µM; active compounds read low;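 also: spheroids exposed to compounds for 7 days before readout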

C=CC(=O)N1CCN(c2nc(=O)n(-c3c(C)ccnc3C(C)C)c3nc(-c4c(O)cccc4F)c(F)cc23)C(C)C1 (stereo not drawn) + CC(C)NCC(C(=O)N1CCN(c2ncnc3c2C(C)CC3O)CC1)c1ccc(Cl)cc1; 52.6%
Cn1ncc(Cl)c1-c1cc(C(=O)NC(CN)Cc2cccc(F)c2)sc1Cl (stereo not drawn) + CC(C)NCC(C(=O)N1CCN(c2ncnc3c2C(C)CC3O)CC1)c1ccc(Cl)cc1; 54.4%

Continue with the next molecule.
Find the measured viability, T/C: item Cc1nc(NC(=O)N2CCCC2C(N)=O)sc1-c1ccnc(C(C)(C)C(F)(F)F)c1 (stereo not drawn) + CC(C)NCC(C(=O)N1CCN(c2ncnc3c2C(C)CC3O)CC1)c1ccc(Cl)cc1 , target or system 556581-035-R-J1-PDC spheroids with HUVEC/MSC, viability. 43.5%
